# study system: human ether-à-go-go-related gene (hERG) potassium channel (human, UniProt Q12809);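 note: peak tail current of the secondary pulse compared with the same well before compound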
# Sequence (Q12809 whole entry, looked up): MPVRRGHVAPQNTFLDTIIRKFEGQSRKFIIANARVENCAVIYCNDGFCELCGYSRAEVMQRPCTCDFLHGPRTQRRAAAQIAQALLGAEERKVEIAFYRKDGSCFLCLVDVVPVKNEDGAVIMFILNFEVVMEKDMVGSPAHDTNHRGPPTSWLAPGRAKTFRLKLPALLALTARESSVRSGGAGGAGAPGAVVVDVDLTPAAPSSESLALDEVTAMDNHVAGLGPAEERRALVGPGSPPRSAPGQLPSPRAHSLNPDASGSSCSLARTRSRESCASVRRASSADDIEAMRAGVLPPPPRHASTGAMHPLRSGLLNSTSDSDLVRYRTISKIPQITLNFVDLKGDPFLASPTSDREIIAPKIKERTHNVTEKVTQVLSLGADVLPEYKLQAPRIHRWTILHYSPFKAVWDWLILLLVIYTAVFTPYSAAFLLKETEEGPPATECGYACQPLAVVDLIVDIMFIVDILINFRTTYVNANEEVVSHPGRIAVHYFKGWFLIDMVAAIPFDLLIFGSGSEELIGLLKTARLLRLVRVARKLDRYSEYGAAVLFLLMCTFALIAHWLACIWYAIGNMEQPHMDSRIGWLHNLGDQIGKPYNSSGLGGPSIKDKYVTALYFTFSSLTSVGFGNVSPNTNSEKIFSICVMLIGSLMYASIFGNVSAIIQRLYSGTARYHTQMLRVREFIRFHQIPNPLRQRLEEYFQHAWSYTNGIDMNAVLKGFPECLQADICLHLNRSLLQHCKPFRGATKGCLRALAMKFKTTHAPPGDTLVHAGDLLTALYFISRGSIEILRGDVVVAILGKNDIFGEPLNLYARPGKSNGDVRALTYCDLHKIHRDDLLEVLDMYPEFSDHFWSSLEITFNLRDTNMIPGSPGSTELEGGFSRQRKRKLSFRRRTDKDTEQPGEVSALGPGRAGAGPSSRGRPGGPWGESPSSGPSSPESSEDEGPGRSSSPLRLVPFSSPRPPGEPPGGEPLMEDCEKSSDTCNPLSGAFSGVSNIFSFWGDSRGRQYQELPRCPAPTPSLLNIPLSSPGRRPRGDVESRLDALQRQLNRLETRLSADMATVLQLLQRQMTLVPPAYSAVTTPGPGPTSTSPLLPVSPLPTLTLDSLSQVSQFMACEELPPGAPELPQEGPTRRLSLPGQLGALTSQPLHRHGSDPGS
# protocol description: primary screen, population patch clamp on CHO cells stably expressing hERG; higher = less effect of the substance
In all, about 310,000 compounds went through this assay and about 14,000 (4.5%) showed an effect of 50% or more. Effects have a minus sign here. The sample as a whole holds a higher share of strong results than the screen did.
measure: hERG current change (%, negative = inhibition) at 10uM (%)

* c1ccc2c(CSCCc3ccncc3)cccc2c1 | -17.6
* O=C(Nc1ccc2c(c1)OCO2)C(=O)c1c[nH]c2ccccc12 | 22.3
* Cc1nn(-c2ccc(Cl)cc2Cl)c(=O)c2ccccc12 | -11.3
* O=C(NCc1cccs1)c1cccn2c(=O)c3sccc3nc12 | -7.79
* COc1ccccc1CNC(=O)c1c(O)c2cc(OC)c(OC)cc2[nH]c1=O | 6.86
* S=c1[nH]nc(CSCc2ccccc2Cl)n1-c1ccccc1 | 0.868
* O=C(NCc1cccnc1)c1cccn2c(=O)c3sccc3nc12 | -63.2
* O=C(CN1C(=O)C2CC=CCC2C1=O)Nc1nnc(C2CC2)s1 (centres unmarked) | 6.01
* Cc1ccc(OCc2nc(C#N)c(N3CCCC3)o2)cc1 | -62.8
* Cc1cc(C)c(C#N)c(SCC(=O)CC(=O)OC(C)C)n1 | 1.82
* COc1ccc(N2CCN(S(=O)(=O)c3ccc4c(c3)CCCC4)CC2)c([N+](=O)[O-])c1 | 6.51

* * *

# study system: human ether-à-go-go-related gene (hERG) potassium channel (human, UniProt Q12809);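 note: peak tail current of the secondary pulse compared with the same well before compound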
# protocol description: primary screen, population patch clamp on CHO cells stably expressing hERG; higher = less effect of the substance
Among all 310,000 compounds or so, about 14,000 (4.5%) showed an effect of 50% or more. Effects have a minus sign here. For the sample, strong results were picked, then their nearest neighbours and some compounds at random.
measure: hERG current change (%, negative = inhibition) at 10uM (%)

• Cc1ccc(C(=O)N/C(=C\c2ccc(Cl)cc2)C(=O)NCCN2CCOCC2)cc1 = -75.1
• CN(C)C1=NCCN1CCC1CCCC1 = 1.87
• CN(C)C1=NCCN1CCCC1CCCCC1 = -38.6
• CCOC(=O)c1[nH]c(C)c(C(=O)OCCOc2cccc(C)c2)c1C = 5.99
• O=C(NCCCl)C1Cc2c(ccc3ccccc23)O1 (stereo not drawn) = 7.97
• CCN(CC)C(=O)c1ccc2c(c1[N+](=O)[O-])C(=O)c1ccccc1C2=O = 6.69
• CC(C)CCCN1CCN=C1N(C)C = 8.91
• CCCCCCCN1CCN=C1N(C)C = -67.7
• COc1ccc(CNC2CCSc3ccccc32)cc1OC.O=C(O)C(=O)O (stereo not drawn) = 9.97
• CCCCN1CCN=C1N(C)C = 12
• O=C(NCCN1CCOCC1)/C(=C/c1ccc(Cl)cc1)NC(=O)c1ccccc1 = -76.5
• COc1ccccc1CNC(=O)COc1ccc(C)nc1[N+](=O)[O-] = 18.3

* * *

# study system: human ether-à-go-go-related gene (hERG) potassium channel (human, UniProt Q12809);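 note: peak tail current of the secondary pulse compared with the same well before compound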
# protocol description: primary screen, population patch clamp on CHO cells stably expressing hERG; higher = less effect of the substance
About 14,000 (4.5%) of roughly 310,000 compounds showed an effect of 50% or more. The effect is printed as a negative number. The full list was thinned out, with strong results kept by preference.
Items are presented alongside their recorded hERG current change (%, negative = inhibition) at 10uM.
measure: hERG current change (%, negative = inhibition) at 10uM (%)

• Cc1nn(Cc2ccc(Cl)cc2)c(C)c1NC(=O)Cn1nc([N+](=O)[O-])c(Cl)c1C = 2.42
• Cc1nn(Cc2ccc(Cl)cc2)c(C)c1NC(=O)CCCn1nc([N+](=O)[O-])c(Cl)c1C = -64
• CN(Cc1ccccc1)C(=O)c1c[nH]c2ccc(S(=O)(=O)N3CCOCC3)cc2c1=O = 3.03
• COc1ccccc1CNC(=O)CC(C)c1ccccc1 (stereo not drawn) = 4.63
• Cc1nn(Cc2ccccc2)c(C)c1NC(=O)CCCn1nc(C)c([N+](=O)[O-])c1C = -16.3
• Cc1ccc(Cn2nc(C)c(NC(=O)CCCn3nc(C)c([N+](=O)[O-])c3C)c2C)cc1 = -10.9
• Cc1ccc(Cn2nc(C)c(NC(=O)CCCn3nc([N+](=O)[O-])c(Cl)c3C)c2C)cc1 = -50.7
• Cc1nn(Cc2ccc(Cl)cc2Cl)c(C)c1NC(=O)NC12CC3CC(CC(C3)C1)C2 = 7.38
• Cc1nn(Cc2ccc(Cl)cc2Cl)c(C)c1NC(=O)CCl = -60.9

All figures here come from paper PMC4336329.
